- target: SOS1 (Homo sapiens)
- Construct: comprising amino acid residues 564-1049 corresponding to the catalytic domain; GST-KRAS G12C #MSC-11-538
- Sequence (Q07889 564-1049): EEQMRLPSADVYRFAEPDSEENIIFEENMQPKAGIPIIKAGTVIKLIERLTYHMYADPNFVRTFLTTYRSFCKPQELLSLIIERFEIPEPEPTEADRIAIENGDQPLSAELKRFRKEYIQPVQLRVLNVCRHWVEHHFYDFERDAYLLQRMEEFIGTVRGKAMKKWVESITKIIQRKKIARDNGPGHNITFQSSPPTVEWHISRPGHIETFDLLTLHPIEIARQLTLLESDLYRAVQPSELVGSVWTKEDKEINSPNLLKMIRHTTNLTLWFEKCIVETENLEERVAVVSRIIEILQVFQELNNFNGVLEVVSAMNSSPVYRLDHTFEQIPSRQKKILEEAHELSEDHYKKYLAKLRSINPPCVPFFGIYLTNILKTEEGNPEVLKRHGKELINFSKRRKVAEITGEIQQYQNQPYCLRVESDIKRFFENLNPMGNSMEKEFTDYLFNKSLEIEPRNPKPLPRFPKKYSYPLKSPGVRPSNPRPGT
- assay.procedure: Inhibitory activity on SOS1-mediated GTP exchange (HTRF / TR-FRET nucleotide exchange assay on KRAS G12C)
- study.conditions: SOS1-mediated GTP exchange on GST-KRAS G12C (residues 2-169); SOS1-Strep catalytic domain (564-1049); GTP-DY-647P1; HTRF signal; 5-point concentration series up to 1,000 nM
pIC50: −log10 of the molar value.
Each entry below lists one item and its recorded pIC50 value.

Ask: Name the recorded pIC50 for CNc1cc2c(N[C@H](C)c3cccc(C#N)c3C)nnc(C)c2cc1C(=O)N1CCN(C(C)C)CC1 [Example 21] .
Reply: ≥ 7.30

Ask: How about this compound: CNc1cc2c(N[C@H](C)c3cccc(C#N)c3C)nnc(C)c2cc1C(=O)N1CCS(=O)(=O)CC1 [Example 4]
Reply: ≥ 7.30

Ask: How about this compound: CNc1cc2c(N[C@H](C)c3cccc(C#N)c3C)nnc(C)c2cc1C(=O)N1CC2(COC2)C1 [Example 11]
Reply: ≥ 7.30

Ask: How about this compound: CNc1cc2c(N[C@H](C)c3cccc(C#N)c3C)nnc(C)c2cc1C(=O)N1CCSC1 [Example 3]
Reply: ≥ 7.30

Ask: How about this compound: CNc1cc2c(N[C@H](C)c3cccc(C#N)c3C)nnc(C)c2cc1C(=O)N1CCSCC1 [Example 2]
Reply: ≥ 7.30
